Each entry below carries its recorded log10 of IC50.
- assay.overview: Inhibition of HFIP-induced amyloid beta (1-40) aggregation after 2 hrs by thioflavin T fluorescence method
Heads up, the numbers here are log10 of IC50 in nM units.

CN(CCCCCN(C)c1cc2nc(-c3ccccc3)nn(-c3ccccc3)c-2cc1=O)Cc1ccccc1 :: 3.15
CCN(Cc1ccccc1)c1cc2nc(-c3ccccc3)nn(-c3ccccc3)c-2cc1=O :: 3.32
CC1CCCCN1c1cc2nc(-c3ccccc3)nn(-c3ccccc3)c-2cc1=O (centres undefined) :: 2.57
CN(CCCCCCCCN(C)c1cc2nc(-c3ccccc3)nn3c4ccccc4c(c1=O)c23)Cc1ccccc1 :: 3.15
CN(Cc1ccccc1)c1cc2nc(-c3ccccc3)nn3c4ccccc4c(c1=O)c23 :: 3.61
CC1CC(C)CN(c2cc3nc(-c4ccccc4)nn(-c4ccccc4)c-3cc2=O)C1 (centres undefined) :: 3.08

What measured log10 of IC50 goes with O=c1ccc2nc(-c3ccccc3)nn3c4ccccc4c1c23 ? 3.79

Any idea what its log10 of IC50 is? The compound is CN(CCCCCCCCN(C)c1cc2nc(-c3ccccc3)nn(-c3ccccc3)c-2cc1=O)Cc1ccccc1 4.81

Query: log10 of IC50; subject: O=c1cc2n(-c3ccccc3)nc(-c3ccccc3)nc-2cc1N1CCCCCC1 3.45

* * *

- assay.overview: Inhibition of HFIP-induced amyloid beta (1-40) aggregation after 2 hrs by thioflavin T fluorescence method
Readings of pIC50 for the listed compounds
Reminder that pIC50 is minus the log10 of a molar concentration.

Some solved entries appear below for comparison.
CN(c1cc2nc(-c3ccccc3)nn(-c3ccccc3)c-2cc1=O)C1CCCCC1 :: 5.40
CC1CCCN(c2cc3nc(-c4ccccc4)nn(-c4ccccc4)c-3cc2=O)C1 (stereo not drawn) :: 6.14
O=c1cc2n(-c3ccccc3)nc(-c3ccccc3)nc-2cc1N1CCCCC1 :: 5.15

Would you kindly share the measured pIC50 for O=c1cc2n(-c3ccccc3)nc(-c3ccccc3)nc-2cc1N1CCCc2ccccc21 ? 5.17

Entry CCN(CC)c1cc2nc(-c3ccccc3)nn3c4ccccc4c(c1=O)c23 has what pIC50? 5.85

Quick one: pIC50 for CN(CCCCCCCCNc1cc2nc(-c3ccccc3)nn(-c3ccccc3)c-2cc1=O)Cc1ccccc1 ? 4.68

What does the record list as pIC50 for O=c1c(N2CCCC2)cc2nc(-c3ccccc3)nn3c4ccccc4c1c23 ? 5.70

Reported pIC50 for CN(C)CCCN(C)c1cc2nc(-c3ccccc3)nn3c4ccccc4c(c1=O)c23 : what is it? 5.12

// returns reported pIC50 for input CN(Cc1ccccc1)c1cc2nc(-c3ccccc3)nn(-c3ccccc3)c-2cc1=O 6.00

# pIC50 lookup, item CCN(CC)c1cc2nc(-c3ccccc3)nn(-c3ccccc3)c-2cc1=O 4.77

So what does the record say about pIC50 for O=c1cc2n(-c3ccccc3)nc(-c3ccccc3)nc-2cc1N1CCC(c2ccccc2)CC1 ? 5.82

# input compound: O=c1c(N2CCC(c3ccccc3)CC2)cc2nc(-c3ccccc3)nn3c4ccccc4c1c23 ; wanted: its pIC50 5.41

Can you share its pIC50? I mean this compound: CC1CCCN(c2cc3nc(-c4ccccc4)nn4c5ccccc5c(c2=O)c34)C1 (stereo not drawn) 5.26

* * *

- target: Acetylcholinesterase (Electrophorus electricus) (UniProt O42275)
- Sequence (O42275 24-633 limits assumed): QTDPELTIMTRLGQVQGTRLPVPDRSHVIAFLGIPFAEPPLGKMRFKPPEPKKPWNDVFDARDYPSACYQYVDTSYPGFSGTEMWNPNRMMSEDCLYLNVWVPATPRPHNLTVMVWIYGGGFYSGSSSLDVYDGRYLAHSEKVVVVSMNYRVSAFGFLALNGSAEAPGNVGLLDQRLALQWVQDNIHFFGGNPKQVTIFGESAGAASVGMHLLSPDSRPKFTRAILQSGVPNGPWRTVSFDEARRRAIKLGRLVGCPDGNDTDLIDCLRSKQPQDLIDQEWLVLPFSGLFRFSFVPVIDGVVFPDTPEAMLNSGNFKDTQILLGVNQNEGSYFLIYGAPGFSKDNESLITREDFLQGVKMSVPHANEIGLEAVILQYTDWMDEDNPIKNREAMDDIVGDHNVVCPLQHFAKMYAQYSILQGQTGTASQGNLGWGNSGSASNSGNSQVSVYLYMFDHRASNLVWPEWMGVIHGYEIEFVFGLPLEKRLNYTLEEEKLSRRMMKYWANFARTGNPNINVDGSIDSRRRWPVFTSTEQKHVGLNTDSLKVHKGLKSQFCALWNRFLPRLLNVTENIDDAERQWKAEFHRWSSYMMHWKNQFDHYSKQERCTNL
- assay.overview: Inhibition of electric eel AChE using acetylthiocholine iodide as substrate at 10 uM after 20 mins by Ellman's method
# cutoff 50% applies to inhibition; >= gives label 1, < gives label 0

Worked examples follow.
O=c1cc2n(-c3ccccc3)nc(-c3ccccc3)nc-2cc1N1CCCCC1 :: label 0
O=c1cc2n(-c3ccccc3)nc(-c3ccccc3)nc-2cc1N1CCSCC1 :: label 0

Is inhibition for CC1CCCN(c2cc3nc(-c4ccccc4)nn4c5ccccc5c(c2=O)c34)C1 (stereo not given) at or above 50%? label 0

Assess whether reported inhibition for O=c1cc2n(-c3ccccc3)nc(-c3ccccc3)nc-2cc1Nc1ccccc1 sits at 50% or higher. label 1

Is it the case that CN(c1ccccc1)c1cc2nc(-c3ccccc3)nn(-c3ccccc3)c-2cc1=O has inhibition reaching or exceeding 50%? label 1

Is inhibition at least 50%? Consider CC1CCN(c2cc3nc(-c4ccccc4)nn(-c4ccccc4)c-3cc2=O)CC1 label 0

I'd appreciate it if you could say whether CN(C)CCCN(C)c1cc2nc(-c3ccccc3)nn(-c3ccccc3)c-2cc1=O has inhibition at least equal to 50%. label 0

// inclusive: inhibition at least 50%? input: O=c1c(N2CCCC2)cc2nc(-c3ccccc3)nn3c4ccccc4c1c23 label 0

Assess whether reported inhibition for CN(Cc1ccccc1)c1cc2nc(-c3ccccc3)nn3c4ccccc4c(c1=O)c23 sits at 50% or higher. label 1

Has CC1CCCN(c2cc3nc(-c4ccccc4)nn(-c4ccccc4)c-3cc2=O)C1 (stereo not given) a recorded inhibition greater than or equal to 50%? label 1

* * *

Catalogue of IC50 values
- target: Cholinesterase (Equus caballus)
- Sequence (P81908 whole entry): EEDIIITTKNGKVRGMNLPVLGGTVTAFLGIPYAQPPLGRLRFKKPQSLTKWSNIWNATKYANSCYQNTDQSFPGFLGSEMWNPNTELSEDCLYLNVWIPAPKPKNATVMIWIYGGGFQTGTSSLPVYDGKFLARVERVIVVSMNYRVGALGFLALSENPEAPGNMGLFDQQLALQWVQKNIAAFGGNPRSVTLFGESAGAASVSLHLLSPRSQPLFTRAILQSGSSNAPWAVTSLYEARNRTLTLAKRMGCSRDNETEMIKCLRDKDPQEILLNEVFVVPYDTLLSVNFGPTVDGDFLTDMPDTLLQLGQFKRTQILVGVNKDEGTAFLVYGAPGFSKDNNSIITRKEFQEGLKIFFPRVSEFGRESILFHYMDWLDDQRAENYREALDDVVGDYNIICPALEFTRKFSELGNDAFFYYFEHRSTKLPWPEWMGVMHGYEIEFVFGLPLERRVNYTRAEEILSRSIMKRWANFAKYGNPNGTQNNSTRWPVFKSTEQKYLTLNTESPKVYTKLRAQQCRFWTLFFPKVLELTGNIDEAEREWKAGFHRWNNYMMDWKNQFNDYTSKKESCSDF
- assay.overview: Inhibition of equine serum BChE using butyrylthiocholine iodide as substrate after 20 mins by Ellman's method
# value in µM; strip the unit string

So what does the record say about IC50 for CN(CCCCCCCCN(C)c1cc2nc(-c3ccccc3)nn(-c3ccccc3)c-2cc1=O)Cc1ccccc1 ? 0.31

IC50 lookup needed for CN(CCCCCCCCN(C)c1cc2nc(-c3ccccc3)nn3c4ccccc4c(c1=O)c23)Cc1ccccc1 , thanks. 0.025

Which measured IC50 value corresponds to CN(CCCCCN(C)c1cc2nc(-c3ccccc3)nn(-c3ccccc3)c-2cc1=O)Cc1ccccc1 ? 1.9

Could you tell me which IC50 is on file for CN(C)CCCN(C)c1cc2nc(-c3ccccc3)nn3c4ccccc4c(c1=O)c23 ? 4

* * *

- target: UniProt:P81908
- assay.overview: Inhibition of equine serum BChE using butyrylthiocholine iodide as substrate at 10 uM after 20 mins by Ellman's method
inhibition listing for selected molecules.
All answers are understood in %, so give the number only.

Example entries and their recorded answers appear below.
CN(Cc1ccccc1)c1cc2nc(-c3ccccc3)nn(-c3ccccc3)c-2cc1=O :: 22
CN(c1ccccc1)c1cc2nc(-c3ccccc3)nn(-c3ccccc3)c-2cc1=O :: 11
O=c1cc2n(-c3ccccc3)nc(-c3ccccc3)nc-2cc1N1CCCC1 :: 15

Now consider the entry below.
Fill blank: measured inhibition of the molecule CCN(Cc1ccccc1)c1cc2nc(-c3ccccc3)nn(-c3ccccc3)c-2cc1=O is ____. 13

* * *

Reported inhibition values are given for each entry in this list.
- target: Acetylcholinesterase (Electrophorus electricus)
- assay.overview: Inhibition of electric eel AChE using acetylthiocholine iodide as substrate at 10 uM after 20 mins by Ellman's method
Return type: number; implicit unit %.

COc1cc2nc(-c3ccccc3)nn3c4ccccc4c(c1=O)c23 :: 52

# inhibition lookup, item O=c1ccc2nc(-c3ccccc3)nn3c4ccccc4c1c23 46

What measured inhibition goes with O=c1cc2n(-c3ccccc3)nc(-c3ccccc3)nc-2cc1N1CCCC1 ? 54

// inhibition lookup, key: O=c1cc2n(-c3ccccc3)nc(-c3ccccc3)nc-2cc1N1CCCCCC1 46

Reported inhibition, compound CCN(CC)c1cc2nc(-c3ccccc3)nn3c4ccccc4c(c1=O)c23 : ____ 46

Which inhibition value is on record for O=c1ccc2nc(-c3ccccc3)nn(-c3ccccc3)c-2c1 ? 47

Requested read-out: inhibition. Entry: CC1CC(C)CN(c2cc3nc(-c4ccccc4)nn(-c4ccccc4)c-3cc2=O)C1 (configuration not stated) 46

* * *

- assay.overview: Aqueous solubility of the compound in PBS buffer
- Assay type: physicochemical
reported.endpoint: solubility (µM)
# unit: µM | format: bare number

CN(CCCCCN(C)c1cc2nc(-c3ccccc3)nn(-c3ccccc3)c-2cc1=O)Cc1ccccc1 :: 10

Could you now look at the following compound, please?
Can you look up the measured solubility of O=c1ccc2nc(-c3ccccc3)nn3c4ccccc4c1c23 for me? 50

* * *

Below, each of the molecules is paired with its reported inhibition value.
- target: Acetylcholinesterase (Electrophorus electricus) (UniProt O42275)
- assay.overview: Inhibition of electric eel AChE using acetylthiocholine iodide as substrate at 10 uM after 20 mins by Ellman's method
Your answer is read as %, so omit the unit and give the number.

Use the examples below as a reference point.
CN(CCCCCCCCN(C)c1cc2nc(-c3ccccc3)nn3c4ccccc4c(c1=O)c23)Cc1ccccc1 :: 55
CN(CCCCCCCCNc1cc2nc(-c3ccccc3)nn3c4ccccc4c(c1=O)c23)Cc1ccccc1 :: 46
CN(CCCCCCCCN(C)c1cc2nc(-c3ccccc3)nn(-c3ccccc3)c-2cc1=O)Cc1ccccc1 :: 50
CN(CCCCCCCCNc1cc2nc(-c3ccccc3)nn(-c3ccccc3)c-2cc1=O)Cc1ccccc1 :: 45
O=c1cc2n(-c3ccccc3)nc(-c3ccccc3)nc-2cc1N1CCCc2ccccc21 :: 41
CCN(CC)c1cc2nc(-c3ccccc3)nn(-c3ccccc3)c-2cc1=O :: 55

Query: inhibition; subject: O=c1cc2n(-c3ccccc3)nc(-c3ccccc3)nc-2cc1N1CCc2ccccc2C1 47

Which inhibition value belongs to O=c1cc2n(-c3ccccc3)nc(-c3ccccc3)nc-2cc1N1CCOCC1 ? 42

Would you mind telling me what inhibition value was observed for CN(c1cc2nc(-c3ccccc3)nn(-c3ccccc3)c-2cc1=O)C1CCCCC1 ? 55
